# test: In vitro haemolytic activity
# Type: cell-based
# experimental_context: male, pH 7, 50 μg/ml, 4% human erythrocytes, read-out: Haemolysis (%)

- compound: "COc1cc(NC(C)CCCN)c2ncccc2c1 (stereo not shown) [PQ, reference compound]"
  hemolysis at 1 h, 50 µg/ml / %: 2.08

====

Reported MIC values are given for each entry in this list.
# System: Candida parapsylosis ATCC 22019
parameter: MIC

- compound: "COc1cc(NC(C)CCCNC(=O)NC(C(=O)NC(c2ccccc2)c2ccc(Cl)cc2)c2ccc(Cl)cc2)c2ncccc2c1 (centres unmarked)"
  result: "> 100 µg/mL"
- compound: "COc1cc(NC(C)CCCNC(=O)NC(CC(C)C)C(=O)NC(c2ccccc2)c2ccccc2)c2ncccc2c1 (centres unmarked)"
  result: "> 100 µg/mL"
- compound: "COc1cc(NC(C)CCCNC(=O)NC(C(=O)NC(c2ccccc2)c2ccc(Cl)cc2)c2ccccc2)c2ncccc2c1 (centres unmarked)"
  result: "> 100 µg/mL"
- compound: "COc1cc(NC(C)CCCNC(=O)NC(C(=O)NC(c2ccccc2)c2ccccc2)c2ccc(Cl)cc2)c2ncccc2c1 (centres unmarked)"
  result: "> 100 µg/mL"
- compound: "COc1cc(NC(C)CCCN)c2ncccc2c1 (centres unmarked) [PQ, reference compound]"
  result: "25 µg/mL"
- compound: "COc1cc(NC(C)CCCNC(=O)NC(C(=O)N(C)C(c2ccccc2)c2ccccc2)c2ccccc2)c2ncccc2c1 (centres unmarked)"
  result: "> 100 µg/mL"
- compound: "CN(C)[C@@H]1C(O)=C(C(N)=O)C(=O)[C@@]2(O)C(O)=C3C(=O)c4c(O)cccc4[C@@](C)(O)[C@H]3C[C@@H]12 [TC, tetracycline, reference compound]"
  result: "6.13 µg/mL"
- compound: "COc1ccc(C(=NNC(=O)C(NC(=O)NCCCC(C)Nc2cc(OC)cc3cccnc23)c2ccc(Cl)cc2)c2ccccc2)cc1 (centres unmarked)"
  result: "> 100 µg/mL"
